System: SK-MEL-28
protocol_notes: NCI tumour cell line growth inhibition, 48 h
Active and inactive are the calls of the source. Rule as the data show it: active = GI50 up to about 1.1 µM and inactive = higher.
List of GI50 values.
reported_metric: GI50

{"compound": "CCCCCCCCOCC(O)COC(=O)CCCCCCC (configuration not stated)", "reported_metric": "GI50", "result": "> 100 µM (inactive)"}
{"compound": "O=C1NC(=O)C(c2c[nH]c3cc(Br)ccc23)=C1c1cn(C(c2ccccc2)(c2ccccc2)c2ccccc2)cn1", "reported_metric": "GI50", "result": "27.2 µM (inactive)"}
{"compound": "Cc1cc(C)cc(NC(N)=S)c1", "reported_metric": "GI50", "result": "> 100 µM (inactive)"}
{"compound": "COc1cc(CC(C)N)ccc1O (configuration not stated)", "reported_metric": "GI50", "result": "> 100 µM (inactive)"}
{"compound": "O=C(Cc1nc2ccccc2c(=O)n1-c1c(Cl)cccc1Cl)c1ccncc1", "reported_metric": "GI50", "result": "21.1 µM (inactive)"}
{"compound": "O=[N+]([O-])C(=C/c1cccc2ccccc12)/C(=C\\c1cccc2ccccc12)[N+](=O)[O-]", "reported_metric": "GI50", "result": "1.83 µM (inactive)"}
{"compound": "CCOC(=O)n1ccc2c(C(=O)OC)c(C(=O)OC)cc(/C(=C/C(=O)OC)C(=O)OC)c21", "reported_metric": "GI50", "result": "> 100 µM (inactive)"}
{"compound": "C/C(=N\\OCC(O)CNC(C)C)c1ccc2c(c1)NC(=O)CS2 (configuration not stated)", "reported_metric": "GI50", "result": "> 100 µM (inactive)"}
{"compound": "Cc1ccc(Nc2ncnc3sc(SCc4ccccc4)nc23)cc1", "reported_metric": "GI50", "result": "> 100 µM (inactive)"}
{"compound": "CNC(=O)c1nnn(Cc2ccccc2)c1S", "reported_metric": "GI50", "result": "> 100 µM (inactive)"}
{"compound": "CC(C)=CCc1cc2c(cc1O)OC[C@H]1c3cc4c(cc3O[C@@H]21)OCO4", "reported_metric": "GI50", "result": "83.4 µM (inactive)"}
{"compound": "O=C1c2ccccc2C2(O)NC(=S)N(c3ccccc3)C12O (configuration not stated)", "reported_metric": "GI50", "result": "> 100 µM (inactive)"}

Source listed as ChEMBL document CHEMBL1201862.
